Test system: NCI-H226 lung
Assay: NCI-60 one-dose screen, 48 h (100 = growth as untreated, 0 = no growth, -100 = all killed)
Conditions: 10 µM unless noted
Compounds without any hit were thinned out: in the full panel of roughly 83,000, 20% have a hit.
Give growth for every item shown.
Write the answer as a number in %, unit excluded.

query: Please list growth recorded for the compound COc1ccc(N2C(=O)C(Oc3ccccc3)C2c2ccc(C)cc2)cc1 (centres undefined)
result: 114

query: Please list growth recorded for the compound C[C@]12CC[C@@H]3c4cc(OC(F)F)c(OS(N)(=O)=O)cc4CC[C@H]3[C@@H]1CC[C@@H]2O
result: 54.9

query: Please list growth recorded for the compound CN1CCN(c2ccc(-c3ccc4ncc(C#N)c(Nc5ccc(F)c(Cl)c5)c4c3)cn2)CC1
result: 84.2

query: Please list growth recorded for the compound C=C1C(=O)O[C@H]2[C@H]1CC/C(COC(=O)CSCC(=O)OC/C1=C/CC[C@@]3(C)O[C@H]3[C@H]3OC(=O)C(=C)[C@@H]3CC1)=C\CC[C@@]1(C)O[C@@H]21
result: 91.6

query: Please list growth recorded for the compound COc1cccc(-c2nc(-c3ccc(NC(=O)OC(C)C)cc3)[nH]c2-c2ccnc(Br)c2)c1
result: 31.2

query: Please list growth recorded for the compound N#Cc1c(-c2ccc(Cl)cc2)nc(NCCO)[nH]c1=O
result: 101

query: Please list growth recorded for the compound O=c1c2cc(F)ccc2sc2c(N3CCNCC3)nc3ccc(F)cc3c12
result: 83.8

query: Please list growth recorded for the compound N#Cc1c(-c2ccc(Cl)cc2)nc2c(c(-c3ccccc3)nn2-c2ccccc2)c1-c1ccc(O)cc1
result: 65.9

query: Please list growth recorded for the compound COc1ccc(-c2nc3sc(-c4ccccc4)cn3n2)cc1
result: 76.3

query: Please list growth recorded for the compound CCOC(=O)/C(C#N)=C\Nc1ccc2ncnc(Nc3ccc(Cl)cc3Cl)c2c1
result: 99.8

query: Please list growth recorded for the compound O=C1NC(=O)C(Cn2cnc3ccccc32)N1 (centres undefined)
result: 103

query: Please list growth recorded for the compound CCCCCCN(CCCCCC)c1ccc(/C=C2/SC(=O)NC2=O)c(C)c1
result: 104

query: Please list growth recorded for the compound O=C(CSc1nc2ccccc2[nH]1)Nc1cccc(Cl)c1
result: 101

query: Please list growth recorded for the compound Cc1ccc(C2CC(c3ccc(Nc4ccnc5cc(Cl)ccc45)cc3)=NN2C=O)cc1 (centres undefined)
result: 85.1

query: Please list growth recorded for the compound COc1cccc2nc3n(c12)C(c1c(F)cccc1F)SC3 (centres undefined)
result: 82.7

query: Please list growth recorded for the compound FC(F)(F)c1cc(Nc2ccc3c(OCCCN4CCOCC4)cccc3n2)ccc1Cl
result: 68.5

query: Please list growth recorded for the compound CCN(CC)Cc1cc(Nc2c3ccc(Cl)cc3nc3ccc(OC)cc23)ccc1O
result: 86

query: Please list growth recorded for the compound CC/C=C\C[C@@H](O)C/C=C1/C(=O)C=C[C@H]1C/C=C\CCCC(=O)OC
result: 8.9

query: Please list growth recorded for the compound O=C(S)CNC(=O)c1ccccc1
result: 101

query: Please list growth recorded for the compound CCOC(=O)Cn1c(C)c(/C=N/NC(=O)c2cc3c(ccc4ccccc43)o2)c2ccccc21
result: 19.4

query: Please list growth recorded for the compound C=C1C(=O)O[C@H]2[C@H]1CC/C(COC(=O)CCSSCCC(=O)OC/C1=C/CC[C@@]3(C)O[C@H]3[C@H]3OC(=O)C(=C)[C@@H]3CC1)=C\CC[C@@]1(C)O[C@@H]21
result: 78.1

query: Please list growth recorded for the compound CCCCCCn1c(-c2ccc(C(=O)O/N=C(\N)c3ccc(OC)cc3)cc2)nc(-c2ccccc2)c1-c1ccccc1
result: 62.6

query: Please list growth recorded for the compound Oc1c(I)cc(I)cc1CNCCCN(Cc1ccccn1)Cc1ccccn1
result: -78.4

query: Please list growth recorded for the compound OC(c1ccccc1)C(NC(Cc1ccccc1)c1ccccc1)c1ccccc1 (centres undefined)
result: 82.1

query: Please list growth recorded for the compound C#C[C@]1(O)CC[C@H]2[C@@H]3CC=C4c5sc(Nc6cc(F)ccc6F)nc5CC[C@]4(C)[C@H]3CC[C@@]21C
result: 49

query: Please list growth recorded for the compound COc1cc(C2CC(c3ccc(N(C)C)cc3)=NN2C(C)=O)cc(OC)c1OC (centres undefined)
result: 79.6

query: Please list growth recorded for the compound COc1ccc(C2=Nn3c(nnc3-c3cc(Cl)cc(Cl)c3Cl)SC2)cc1
result: 64.8

query: Please list growth recorded for the compound COc1ccc2sc3c(NCCCNCCO)nc4ccccc4c3c(=O)c2c1
result: 98

query: Please list growth recorded for the compound COc1cc(/C=C/c2ccccc2)cc(OC)c1
result: 92

query: Please list growth recorded for the compound CCOC(=O)c1cn2ncnc(Oc3ccc(NC(=O)NCCN4CCN(C)CC4)c(Cl)c3)c2c1C
result: 82.3

query: Please list growth recorded for the compound O=c1cc(SCc2ccccc2)nc[nH]1
result: 104

query: Please list growth recorded for the compound c1ccc2c(c1)Nc1ccncc1S2
result: 84

query: Please list growth recorded for the compound CC1(C)C2CC1C1(/C=N/NC(N)=S)C(C2)C(C#N)(C#N)C1(C#N)C#N (centres undefined)
result: 109

query: Please list growth recorded for the compound COc1ccc(/C=C/c2c(C(=O)/C=C/c3ccc(Cl)cc3)c(C)nc3ccccc23)cc1
result: 12.4

query: Please list growth recorded for the compound COc1cccc(-c2nn(-c3ccccc3)cc2-c2ccnc(N3CCOCC3)c2)c1
result: 93.9

query: Please list growth recorded for the compound CCCCC[C@H](O)C/C=C1/C(=O)C=C[C@@H]1C/C=C\CCCC(=O)OC
result: 70.4

query: Please list growth recorded for the compound O=C(Nc1ccc(Cl)cc1F)c1cc(Cl)ccc1O
result: -9.16

query: Please list growth recorded for the compound CC1=NN(c2ccc(S(=O)(=O)O)cc2)C(=O)C1N=Nc1ccc(-c2ccc(N=Nc3ccc(OS(=O)(=O)c4ccc(C)cc4)cc3)c(S(=O)(=O)O)c2)cc1 (centres undefined)
result: 85.7

query: Please list growth recorded for the compound Cc1nc2ccccc2c(/C=C/c2ccc(Cl)cc2)c1C(=O)/C=C/c1cccs1
result: 81.2
